- System: expanded OPCs
- protocolDetails: cells
- conditionsUsed: alamarBlue viability of expanded OPCs, compound at 1 µM, relative to DMSO control
propertyMeasured: 1 µM (% DMSO)
The answer is to be given in % DMSO; state only the numeric part.

Here is how some molecules turned out for 1 µM (% DMSO).
molecule	unitAnnotation	1 µM (% DMSO)
NC[C@H](O)c1ccc(O)c(O)c1 [Norepinephrine]	% DMSO	99.0
C#C[C@]1(O)CC[C@H]2[C@@H]3CCC4=Cc5oncc5C[C@]4(C)[C@H]3CC[C@@]21C	% DMSO	92.4
Oc1cc(Cl)ccc1Oc1ccc(Cl)cc1Cl	% DMSO	117.5

Now look at this one.
Q: Given NS(=O)(=O)c1cc2c(cc1C(F)(F)F)NCNS2(=O)=O [Hydroflumethiazide] , respond with its 1 µM (% DMSO).
A: 96.9
